Sourced from PubChem BioAssay AID2060626

System: 168753-222-R-J1-PDC complex spheroid viability;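 further: luminescence signal used as surrogate for viable cell amount; viability measured after seven days of drug exposure; 100% = DMSO vehicle control wells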
Experimental Protocol: Anticancer human tumor 168753-222-R-J1-PDC patient-derived bladder carcinoma cell line growth inhibition [CLK]
Measurement Setup: second compound 0.316 µM; first compound 0.1 µM; stronger effect = lower value
Measured Property: viability, T/C (%)
Supply the numeric figure in %, leaving out any unit text.

Form: compound = CC(=O)O[C@H]1C(=O)[C@@]2(C)[C@H]([C@H](OC(=O)c3ccccc3)[C@]3(O)C[C@H](OC(=O)[C@H](O)[C@@H](NC(=O)c4ccccc4)c4ccccc4)C(C)=C1C3(C)C)[C@]1(OC(C)=O)CO[C@@H]1C[C@@H]2O + CNC(=O)c1ccc(Nc2nc(OC3CCCC3)c3c(-c4ccc5nc(C)oc5c4)c[nH]c3n2)c(OC)c1 ; viability, T/C = 80.5

Form: compound = O=C(c1cc(Cc2n[nH]c(=O)c3ccccc23)ccc1F)N1CCN(C(=O)C2CC2)CC1 + CN1CCN(c2cc(C(=O)Nc3cc4cc(-c5cnn(C)c5)ccc4cn3)ccn2)CC1 ; viability, T/C = 8.85
